Target: T1, IL-18 receptor (IL-18Rα/IL-18Rβ) overexpressed on HEK-Blue IL-18 cells (Homo sapiens (Human), UniProt Q13478 19-541; O95256 20-599)
T1 sequence 1: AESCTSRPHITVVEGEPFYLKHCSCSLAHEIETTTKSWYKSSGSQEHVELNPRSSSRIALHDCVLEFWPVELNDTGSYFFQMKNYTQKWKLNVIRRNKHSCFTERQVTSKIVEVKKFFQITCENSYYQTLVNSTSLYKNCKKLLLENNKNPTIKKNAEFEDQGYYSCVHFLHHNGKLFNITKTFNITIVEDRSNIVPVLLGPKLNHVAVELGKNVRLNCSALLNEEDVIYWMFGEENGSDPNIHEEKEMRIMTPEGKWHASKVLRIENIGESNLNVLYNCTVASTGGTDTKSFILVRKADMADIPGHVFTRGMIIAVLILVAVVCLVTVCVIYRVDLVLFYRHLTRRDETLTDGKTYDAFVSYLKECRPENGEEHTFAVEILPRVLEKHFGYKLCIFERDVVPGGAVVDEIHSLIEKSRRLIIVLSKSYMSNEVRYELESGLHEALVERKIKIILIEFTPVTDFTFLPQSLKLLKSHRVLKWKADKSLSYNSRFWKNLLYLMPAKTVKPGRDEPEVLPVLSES
T1 sequence 2: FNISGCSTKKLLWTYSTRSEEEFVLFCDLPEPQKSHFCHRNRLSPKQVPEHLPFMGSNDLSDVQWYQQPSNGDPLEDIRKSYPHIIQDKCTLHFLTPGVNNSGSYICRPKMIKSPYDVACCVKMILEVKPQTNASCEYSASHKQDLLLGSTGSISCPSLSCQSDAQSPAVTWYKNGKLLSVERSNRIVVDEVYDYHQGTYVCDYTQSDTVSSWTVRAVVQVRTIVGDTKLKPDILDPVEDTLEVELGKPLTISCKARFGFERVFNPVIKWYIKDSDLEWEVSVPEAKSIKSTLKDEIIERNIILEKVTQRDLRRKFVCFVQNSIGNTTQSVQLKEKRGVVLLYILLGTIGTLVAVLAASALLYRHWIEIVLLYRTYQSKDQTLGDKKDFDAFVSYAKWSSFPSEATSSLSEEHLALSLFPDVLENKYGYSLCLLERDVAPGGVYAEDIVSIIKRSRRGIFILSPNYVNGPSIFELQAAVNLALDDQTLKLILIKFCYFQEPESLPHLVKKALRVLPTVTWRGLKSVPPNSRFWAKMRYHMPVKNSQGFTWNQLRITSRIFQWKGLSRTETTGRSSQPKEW
Assay: cell-based or functional assay
Quick reference for HEK-Blue IL-18: Abs405 (Emax) among some binders
Write the number in Abs without appending the unit.

Please review the following examples before continuing.
binder	attributeMeasured	endpointResult
DGL091 (bispecific antibody, V domains shown) V domain 1: QVQLVESGGGLVQAGGSLRLSCAASGRTFSKHAMGWFRQAPGKEREFVAAIDWSGGSTYYADSVKGRFTISRDNAKNTVYLQMDSLKPEDTAVYYCAADSYTDYAQLWLPELESEYDYWGQGTQVTVSS V domain 2: QVQLVESGGGLVQAGDSLRLSCVASERTFSSYTMGWFRQAPGKEREFTAALSWWNGGISTAYADSVKGRFTISRDNAKNTVYLQMNSLKTEDTALYYCAAARDRMPRADEYDYWGQGTQVTVSS	HEK-Blue IL-18: Abs405 (Emax)	0.35
DGL076 (bispecific antibody, V domains shown) V domain 1: QVQLQESGGGLVQPGGSLRLSCAASGNIFRATGMGWYRQAPGKWRELVARISSTGSPNYVDFVKGRFTISRDNAKNTLYLQMNSLKPDDTAVYYCNTVGTTLFAWGQGTQVTVSS V domain 2: EVQLVESGGGVAQAGGSLRLSCAASITSFSLNTMGYYRQLPGKQRELVAVESSSGITNYADSVKGRFTISRDGAKNTVFLQMNSLTPEDTAVYYCGGKLFGRDFWGQGTQVTVSS	HEK-Blue IL-18: Abs405 (Emax)	0.49

Exercise: Any idea what HEK-Blue IL-18: Abs405 (Emax) was measured for DGL092 (bispecific antibody, V domains shown) V domain 1: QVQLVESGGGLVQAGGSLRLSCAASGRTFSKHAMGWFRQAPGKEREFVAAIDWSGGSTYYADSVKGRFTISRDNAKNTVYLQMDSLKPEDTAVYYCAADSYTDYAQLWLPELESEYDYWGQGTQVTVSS V domain 2: EVQLVESGGGLVQAGGSLRLSCAASGRTFRNYHMGWFRQAPGQEREFVAAISSSGGKTSYPDSVNGRFTISRDNAKNTVYLQMNNLKVEDTAVYYCAADPRYWVAAGGSEPENVEVWGQGTLVTVSS ?
Solution: 0.61
